Taken from patent US20240067734A1.

TEST_SYSTEM: T1, di huNKG2D ECD Fc avi (human, biotinylated at the avi-tag)
T1 construct: Dimeric fusion of human NKG2D ECD to the C-terminus of an avi-tagged human IgG1 Fc
T1 sequence (chain, as listed by the source limits assumed): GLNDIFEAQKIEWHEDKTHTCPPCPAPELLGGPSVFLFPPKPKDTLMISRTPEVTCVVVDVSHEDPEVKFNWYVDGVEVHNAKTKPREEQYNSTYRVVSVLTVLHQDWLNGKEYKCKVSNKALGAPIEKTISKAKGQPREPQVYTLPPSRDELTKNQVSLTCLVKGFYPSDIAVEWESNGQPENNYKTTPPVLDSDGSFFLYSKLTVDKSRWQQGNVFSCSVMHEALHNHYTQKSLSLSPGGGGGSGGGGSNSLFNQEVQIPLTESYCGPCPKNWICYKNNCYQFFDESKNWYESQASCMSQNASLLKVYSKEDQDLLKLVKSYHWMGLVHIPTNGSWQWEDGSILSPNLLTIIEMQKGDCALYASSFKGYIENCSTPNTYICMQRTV
TEST: SPR Biacore; IgG captured by anti-Fab, antigen analyte
METRIC_NAME: log10(koff) (log10 of the value in s⁻¹)
Heads up, the numbers here are log10 of koff in s⁻¹ units.

Need log10(koff), item anti-NKG2D antibody clone 001 (antibody, V domains shown, From transgenic rabbits) VH: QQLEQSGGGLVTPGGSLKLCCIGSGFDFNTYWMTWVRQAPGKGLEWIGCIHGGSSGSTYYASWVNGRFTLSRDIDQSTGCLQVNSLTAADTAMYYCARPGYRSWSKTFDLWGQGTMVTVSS VL: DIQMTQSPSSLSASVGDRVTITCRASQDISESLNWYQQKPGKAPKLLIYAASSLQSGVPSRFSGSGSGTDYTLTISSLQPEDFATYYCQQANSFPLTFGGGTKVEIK -3.35

Need log10(koff), item anti-NKG2D antibody clone 018 (antibody, V domains shown, From transgenic rabbits) VH: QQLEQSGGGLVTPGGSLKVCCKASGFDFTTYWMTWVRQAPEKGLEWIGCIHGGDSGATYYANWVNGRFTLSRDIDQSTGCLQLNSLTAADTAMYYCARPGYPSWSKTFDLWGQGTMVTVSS VL: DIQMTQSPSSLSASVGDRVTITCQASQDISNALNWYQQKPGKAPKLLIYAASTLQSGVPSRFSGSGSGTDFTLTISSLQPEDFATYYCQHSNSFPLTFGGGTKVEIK -2.89

Need log10(koff), item anti-NKG2D antibody clone 320 (antibody, V domains shown, From transgenic rabbits; also called 320 IgG) VH: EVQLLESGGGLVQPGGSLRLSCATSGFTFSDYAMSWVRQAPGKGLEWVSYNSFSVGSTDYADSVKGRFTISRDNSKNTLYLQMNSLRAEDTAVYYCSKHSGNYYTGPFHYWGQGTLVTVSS VL: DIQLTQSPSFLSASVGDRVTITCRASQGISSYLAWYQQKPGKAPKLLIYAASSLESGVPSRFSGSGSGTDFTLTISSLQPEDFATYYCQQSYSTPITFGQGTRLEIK -2.04

Need log10(koff), item anti-NKG2D antibody clone 395 (antibody, V domains shown, From transgenic rabbits; rabbit VH, human VL) VH: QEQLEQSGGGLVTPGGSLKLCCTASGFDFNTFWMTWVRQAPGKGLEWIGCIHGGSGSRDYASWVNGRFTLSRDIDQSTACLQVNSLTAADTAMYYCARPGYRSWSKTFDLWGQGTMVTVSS VL: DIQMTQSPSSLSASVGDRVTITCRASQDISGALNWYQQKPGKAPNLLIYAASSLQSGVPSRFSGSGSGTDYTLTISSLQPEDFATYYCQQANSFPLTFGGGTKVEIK -4.49

Need log10(koff), item anti-NKG2D antibody clone 013 (antibody, V domains shown, From transgenic rabbits) VH: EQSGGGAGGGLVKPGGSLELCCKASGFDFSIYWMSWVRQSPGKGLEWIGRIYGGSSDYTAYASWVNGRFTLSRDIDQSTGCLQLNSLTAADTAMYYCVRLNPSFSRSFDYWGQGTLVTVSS VL: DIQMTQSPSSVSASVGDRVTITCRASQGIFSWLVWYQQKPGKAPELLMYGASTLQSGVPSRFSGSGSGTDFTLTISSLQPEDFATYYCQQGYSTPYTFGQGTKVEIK -2.89

Need log10(koff), item anti-NKG2D antibody clone 296 (antibody, V domains shown, From transgenic rabbits) VH: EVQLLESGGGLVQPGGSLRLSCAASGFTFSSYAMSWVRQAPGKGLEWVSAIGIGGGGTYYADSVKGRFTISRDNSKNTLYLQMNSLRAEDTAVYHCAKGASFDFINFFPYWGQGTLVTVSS VL: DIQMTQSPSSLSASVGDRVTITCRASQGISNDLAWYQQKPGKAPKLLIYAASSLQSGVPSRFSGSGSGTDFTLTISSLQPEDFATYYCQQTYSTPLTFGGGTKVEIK -3.10

Need log10(koff), item anti-NKG2D antibody clone 230 (antibody, V domains shown, From transgenic rabbits) VH: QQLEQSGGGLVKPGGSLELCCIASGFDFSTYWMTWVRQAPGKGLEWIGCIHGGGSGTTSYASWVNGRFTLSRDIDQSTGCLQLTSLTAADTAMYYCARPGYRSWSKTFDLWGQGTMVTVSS VL: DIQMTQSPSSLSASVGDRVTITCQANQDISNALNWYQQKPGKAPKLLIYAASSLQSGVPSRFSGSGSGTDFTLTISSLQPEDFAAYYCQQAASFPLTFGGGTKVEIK -3.80
